Origin of measurements: patent US20180185504A1

Molecular target: T1, hPRLR.mmh (soluble monomeric human PRLR) (human)
T1 construct: called soluble monomeric PRLR protein
T1 chain: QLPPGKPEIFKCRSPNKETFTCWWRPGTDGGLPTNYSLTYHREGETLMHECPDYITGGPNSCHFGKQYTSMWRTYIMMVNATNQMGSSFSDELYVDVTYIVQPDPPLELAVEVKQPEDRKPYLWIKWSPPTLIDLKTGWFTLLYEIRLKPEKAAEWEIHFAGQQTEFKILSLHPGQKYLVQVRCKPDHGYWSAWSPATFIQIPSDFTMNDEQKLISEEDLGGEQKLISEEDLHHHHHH
Assay: SPR Biacore, 25 C, mAb capture
Method: Measurements were conducted on a T200 Biacore instrument. Kinetic association (kₐ) and dissociation (kd) rate constants were determined by processing and fitting the data to a 1:1 binding model using Scrubber 2.0 curve fitting software.
Reported values of Kd for individual entries
Remember to follow the number with its unit.

[
  {
    "binder": "H1H6804P (antibody, human IgG1, V domains shown, Human IgG1 Fc (H1H)) VH: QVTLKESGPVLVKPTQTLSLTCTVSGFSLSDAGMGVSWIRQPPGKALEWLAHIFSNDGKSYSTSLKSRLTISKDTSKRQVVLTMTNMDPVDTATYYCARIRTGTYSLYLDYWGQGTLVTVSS VL: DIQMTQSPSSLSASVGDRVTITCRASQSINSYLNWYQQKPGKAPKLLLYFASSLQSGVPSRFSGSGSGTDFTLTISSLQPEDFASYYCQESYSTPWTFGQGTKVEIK",
    "result": "1.4 nM"
  },
  {
    "binder": "H1H6762P (antibody, human IgG1, V domains shown, Human IgG1 Fc (H1H)) VH: QVQLVESGGGVVQPGRSLRLSCAASGFTFSHYGMVWVRQPPGKGLEWVALISFDGTTKYYADSVKGRFTISRDNSKNTLYLQMNSLRAEDTAVYFCVGAIAAAAFDLWGRGTLVTVSS VL: EIVMTQSPATLSVSPGERATLSCRASQSVSSDLAWYQQKPGQAPRLLIYSASARATGIPARFTGSGSGTDFTLTISSLQSEDFAVYYCQQYNNWPMYTFGQGTKLEIK",
    "result": "0.259 nM"
  },
  {
    "binder": "H1H6774P (antibody, human IgG1, V domains shown, Human IgG1 Fc (H1H)) VH: EVQLVESGGGLAQPGGSLRLSCVASGFTFSTYWMSWVRQAPGKGLDWVGNIKQDGSEQNYVDSVRGRFTISRDNAKNSLFLQMNSLRAEDTGVYYCATLLTKGDYWGQGTLVTVSS VL: DIQMTQSPSSLSASVGDSVTITCRASQDISNYLDWFQQKPGKAPKSLIYAASILQGGVPSRFSGSGYGTDFTLTISSLQPEDFATYYCRQYKTYPFTFGPGTKVDIK",
    "result": "1.14 nM"
  }
]

Let's switch to this binder now.
Query block: Would you kindly share the measured Kd for H1H6966N (antibody, human IgG1, V domains shown, Tested with human IgG1 Fc (H1H); also called H2M6966N) VH: QVQLVQSGAEVQKPGASVKVSCKVSGYTLTALSIHWVRQAPGKGLEWMGNFDPGDGETIHAQKFQGRVTMTGDTSTDTAYMELSSLRSEDTAVYYCVGVTFDYWGQGTLVTVSS VL: EIVMTQSPATLSVSPGERATLSCRASQSVASNLAWYQQKPGQAPRLLLYGASTRATGIPARFSGSGSGTEFTLTISSLQSEDFALYYCQHYNNWPLTFGGGTKVEIK ?
Result block: 0.302 nM
